Biological target: HLA-B*44:02
Test: IEDB peptide-MHC binding, purified MHC/direct/fluorescence; filed as Kd, often an IC50 or EC50 that approximates it; bounds were set here for any values at or beyond the usual limits of such assays
Details: source organism: Vibrio cholerae
What Kd was measured for each of the following?

Task: Which Kd value is on record for "KEDPGDHIF" ?
Result: ≥ 20 µM

Task: What do you have for "IPISGRITA" ?
Result: ≥ 20 µM

###

Biological target: HLA-A*02:16
Experiment: IEDB peptide-MHC binding, purified MHC/direct/fluorescence; filed as Kd, often an IC50 or EC50 that approximates it; bounds were set here for any values at or beyond the usual limits of such assays
Settings: source organism: Brucella suis 1330
pKd: −log10 of the molar value.
Quantity: pKd

Task: Which pKd value is on record for "MRIGSMATL" ?
Result: ≤ 4.70

###

Biological target: HLA-A*02:01
Test: IEDB peptide-MHC binding, purified MHC/competitive/radioactivity; filed as Kd, often an IC50 or EC50 that approximates it; bounds were set here for any values at or beyond the usual limits of such assays
Conditions: source organism: Homo sapiens
pKd: −log10 of the molar value.
Quantity: pKd

Task: Which pKd value is on record for "DLNGAQIKL" ?
Result: ≤ 4.30

###

Target: HLA-A*02:03
Assay: IEDB peptide-MHC binding, purified MHC/competitive/radioactivity; filed as Kd, often an IC50 or EC50 that approximates it; bounds were set here for any values at or beyond the usual limits of such assays
Conditions: source organism: Vaccinia virus WR
Quantity: log10 of Kd (log10 of the value in nM)
Form field - Quantity: Kd; Unit: nM; Scale: log10

Task: Which log10 of Kd value is on record for "LVFNSISARA" ?
Result: 2.40

Task: What do you have for "IAIFNNRNLA" ?
Result: 3.17

Task: What do you have for "VTYNIKPVIV" ?
Result: 2.06

Task: What do you have for "FLQISRVNDL" ?
Result: 1.83

Task: What do you have for "SQIFNIISYI" ?
Result: 2.26

Task: What do you have for "LVSKHWELT" ?
Result: 4.17

Task: What do you have for "VMPEKRNVVV" ?
Result: 2.48

Task: What do you have for "RLLKNMKQCT" ?
Result: 3.50

Task: What do you have for "MLDDFSAGA" ?
Result: 1.86

Task: What do you have for "RMPTDMLKL" ?
Result: 2.03

Task: What do you have for "LLTDTIESA" ?
Result: 1.02

Task: What do you have for "CVRLNNPVIL" ?
Result: 3.73

###

Biological target: HLA-A*02:11
Experiment: IEDB peptide-MHC binding, purified MHC/direct/fluorescence; filed as Kd, often an IC50 or EC50 that approximates it; bounds were set here for any values at or beyond the usual limits of such assays
Settings: source organism: Toxoplasma gondii RH
Quantity: Kd

Task: Which Kd value is on record for "THADAHTQL" ?
Result: ≥ 20 µM

###

Biological target: HLA-B*46:01
Assay: IEDB peptide-MHC binding, purified MHC/direct/fluorescence; filed as Kd, often an IC50 or EC50 that approximates it; bounds were set here for any values at or beyond the usual limits of such assays
Settings: source organism: Influenza A virus (A/chicken/Hubei/wm/1997(H5N1))
pKd: −log10 of the molar value.
Quantity: pKd

Task: Which pKd value is on record for "EKPKFLPDL" ?
Result: ≤ 4.70
